Experiment: qHTS Screen of the MIPE 4.0 Collection Against Ewings Sarcoma (EW8) (AID 1259255); further: nearly all actives have a fitted effect of over 35% in size
Settings: EW8 Ewing sarcoma viability, CellTiter-Glo, 48 h; series mostly up to 45.8 µM
Inconclusive results are not listed. Calls of active or inactive are those of the source. The call rests on the fitted dose curve; in most records, active means well fitted inhibition curve with a large enough effect; inconclusive means small, poorly fitted or top-dose-only effect; inactive means no such curve, though single readings can be large or run the other way.
Response enum: active, inactive

Some entries whose results are on file:
| molecule | category |
| --- | --- |
| CC(C)(C)NCC(O)c1ccc(O)c(CO)c1 (stereo not drawn) | inactive |
| O=S(=O)(N=Cc1c(O)ccc2ccccc12)c1cccs1 | active |
| CCn1c(-c2nonc2N)nc2cnc(Oc3cccc(NC(=O)c4ccc(OCCN5CCOCC5)cc4)c3)cc21 | active |

Per the assay record, what outcome was assigned to `Cc1[nH]c(=O)c(C#N)cc1-c1ccc2nccn2c1` ?
inactive

---

Test: Quantitative high throughput screen for delayed death inhibitors of the malarial parasite plastid, 48 hour incubation (AID 488752); further: nearly all actives have a fitted effect of over 65% in size
Details: Plasmodium falciparum growth; series mostly up to 28.7 µM
Inconclusive results are not listed. Calls of active or inactive are those of the source. Calls follow the shape of the dose curve; as a rule, active = well fitted inhibition curve with a large enough effect; inconclusive = small, poorly fitted or top-dose-only effect, or effect the other way; inactive = flat fitted curve, though single readings scatter.

| givenSmiles | outcome |
| --- | --- |
| O=NN(CCCl)C(=O)NCCCl | inactive |
| NNCCc1ccccc1 | inactive |
| NC[C@H](O)c1ccc(O)c(O)c1 | inactive |

---

Assay: qHTS profiling for inhibitors of Plasmodium falciparum (HB3) proliferation (AID 743324)
Conditions: Plasmodium falciparum HB3 blood-stage proliferation; at 28.7 µM (top of the series) unless noted
Ranges used to classify remaining proliferation (% of control), lower = more inhibition: Low (below 20%), Medium (20% to below 70%), High (70% or more)

Bin? `C[C@@H]1CN(Cc2ccc(F)cc2)[C@@H](C)CN1C(=O)c1cc2c(C(=O)C(=O)N(C)C)cn(C)c2cc1Cl`
Medium

Now give it for `O=C(C1CC1)N1CC[C@@H](Cn2c(-c3ccc(-c4ccc5occc5c4)cc3)nc3cnccc32)C1` too.
Medium

Repeat for the following molecule: `C/C(=C\C(=O)Nc1ccccc1C(=O)O)c1ccc2ccccc2c1`
High

Next up: `CCCS(=O)(=O)Nc1ccc(F)c(C(=O)c2c[nH]c3ncc(-c4ccc(Cl)cc4)cc23)c1F`
Medium

How about `CS(=O)(=O)c1ccc(C(=O)Nc2ccc(Cl)c(-c3ccccn3)c2)c(Cl)c1` ?
High

Same thing, different molecule: `O=C(Nc1ccc(F)c(C(F)(F)F)c1)Nc1nnc(-c2ccncc2)s1`
Medium

Same question, `CCCCCCCc1ccc(CCc2cccc(O)c2C(=O)O)cc1` this time
Medium

Quick one: `CCOc1cc(C(=O)Nc2ccc(Cl)c(-c3nc4ccccc4[nH]3)c2)cc(OCC)c1OCC`
Low

Record: `Cc1cc2c(F)c(Oc3ncnn4cc(OC[C@@H](C)O)c(C)c34)ccc2[nH]1`
High

Try the molecule `Cc1cc(-c2ccc(CC(=O)Nc3ccc(-c4cccnc4)cc3)cc2)ccn1`
Low

Okay, and `CCOc1ccn(-c2ccc(F)cc2)c(=O)c1C(=O)Nc1ccc(Oc2ccnc(N)c2Cl)c(F)c1` ?
Medium

`Cc1cc(C=c2sc3nc4ccccc4n3c2=O)c(C)n1-c1ccccc1` ?
High

Check COc1ccc(CC2=NN3C([C@@H](CCc4ccccc4)[C@@H](C)O)=NC(C)C3C(=O)N2)cc1OC (some centres undefined) too.
Low

Same thing, different molecule: CN(C)c1ccc(C2Nc3ccc4ccccc4c3C3=C2C(=O)CC(C)(C)C3)cc1Br (centres undefined)
Low

Field entry: `NC(=O)c1ccc(-c2nc(-c3ccc4c(c3)OCCO4)c(-c3ccccn3)[nH]2)cc1`
Low

What about `CCCn1c(=O)c2[nH]c(C34CC5CC3C[C@@H](C5)C4)nc2n(CCC)c1=O` ?
Medium

Okay, and `COCCNCCCn1c(C(=O)CF)c(-c2ccc(C)cc2)c2c(N)ncnc21` ?
Medium
